- Tested on: 648629-189-R-J1-PDC spheroids with HUVEC/MSC, viability
- Test: Anticancer human tumor 648629-189-R-J1-PDC patient-derived bladder carcinoma cell line growth inhibition [PI3K]
- Condition Description: compound alone; run of 04/25/2023

# Compound, IC50
rows = [
    ("COc1c(OCCCN2CCOCC2)ccc2c3n(c(=NC(=O)c4cnc(N)nc4)nc12)CCN3", "144 nM [middle of 7 runs]"),
    ("CC(Nc1ncnc2nc[nH]c12)c1cc2cccc(Cl)c2c(=O)n1-c1ccccc1 (configuration not stated)", "> 10 µM"),
]

---

The reader will find reported viability, T/C values listed item by item below.
- Tested on: 648629-189-R-J1-PDC spheroids with HUVEC/MSC, viability
- Test: Anticancer human tumor 648629-189-R-J1-PDC cell line growth inhibition [PI3K];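 also: spheroids exposed to agents for seven days before reading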;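 as to viability, T/C: percent of vehicle control luminescence where 100% = DMSO treated spheroids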
- Condition Description: second compound 0.0316 µM; first compound 0.01 µM; stronger effect = lower value
- Excerpt: Combinatorial screen of targeted agents with the PI3K inhibitors inavolisib, alpelisib, duvelisib, and copanlisib in multi-cell type tumor spheroids A high-throughput screen of multi-cell type tumor spheroids was designed to identify active combinations of targeted small molecules and PI3K pathway inhibitors. […] Compounds. […] If the clinical Cmax for an agent had not been determined, the highest concentration tested was 10 microM. […]

# Compound, Unit, viability, T/C
rows = [
    ("CCN1CCN(Cc2ccc(Nc3ncc(F)c(-c4cc(F)c5nc(C)n(C(C)C)c5c4)n3)nc2)CC1 + Cc1nc(NC(=O)N2CCCC2C(N)=O)sc1-c1ccnc(C(C)(C)C(F)(F)F)c1", "%", 107),
    ("CC(C)n1nc(-c2ccc3oc(N)nc3c2)c2c(N)ncnc21 + COc1c(OCCCN2CCOCC2)ccc2c3n(c(=NC(=O)c4cnc(N)nc4)nc12)CCN3", "%", 68.3),
    ("CCN1CCN(Cc2ccc(Nc3ncc(F)c(-c4cc(F)c5nc(C)n(C(C)C)c5c4)n3)nc2)CC1 + CC(Nc1ccc2c(c1)OCCn1cc(N3C(=O)OCC3C(F)F)nc1-2)C(N)=O", "%", 99.2),
    ("CC(=O)c1c(C)c2cnc(Nc3ccc(N4CCNCC4)cn3)nc2n(C2CCCC2)c1=O + CC(Nc1ccc2c(c1)OCCn1cc(N3C(=O)OCC3C(F)F)nc1-2)C(N)=O", "%", 99.9),
    ("Cn1ncnc1[C@H]1c2n[nH]c(=O)c3cc(F)cc(c23)N[C@@H]1c1ccc(F)cc1 + COc1c(OCCCN2CCOCC2)ccc2c3n(c(=NC(=O)c4cnc(N)nc4)nc12)CCN3", "%", 73.5),
    ("CC(=O)c1c(C)c2cnc(Nc3ccc(N4CCNCC4)cn3)nc2n(C2CCCC2)c1=O + COc1c(OCCCN2CCOCC2)ccc2c3n(c(=NC(=O)c4cnc(N)nc4)nc12)CCN3", "%", 99.1),
    ("CC(C)n1nc(-c2ccc3oc(N)nc3c2)c2c(N)ncnc21 + CC(Nc1ccc2c(c1)OCCn1cc(N3C(=O)OCC3C(F)F)nc1-2)C(N)=O", "%", 80),
    ("CC(=O)c1c(C)c2cnc(Nc3ccc(N4CCNCC4)cn3)nc2n(C2CCCC2)c1=O + Cc1nc(NC(=O)N2CCCC2C(N)=O)sc1-c1ccnc(C(C)(C)C(F)(F)F)c1", "%", 100),
    ("Cn1ncnc1[C@H]1c2n[nH]c(=O)c3cc(F)cc(c23)N[C@@H]1c1ccc(F)cc1 + CC(Nc1ccc2c(c1)OCCn1cc(N3C(=O)OCC3C(F)F)nc1-2)C(N)=O", "%", 79.2),
    ("CC(=O)c1c(C)c2cnc(Nc3ccc(N4CCNCC4)cn3)nc2n(C2CCCC2)c1=O + CC(Nc1ncnc2nc[nH]c12)c1cc2cccc(Cl)c2c(=O)n1-c1ccccc1", "%", 92.1),
]
